Biological target: DNA repair protein RAD52 homolog (Homo sapiens) (UniProt P43351)
Sequence (P43351 whole entry, looked up): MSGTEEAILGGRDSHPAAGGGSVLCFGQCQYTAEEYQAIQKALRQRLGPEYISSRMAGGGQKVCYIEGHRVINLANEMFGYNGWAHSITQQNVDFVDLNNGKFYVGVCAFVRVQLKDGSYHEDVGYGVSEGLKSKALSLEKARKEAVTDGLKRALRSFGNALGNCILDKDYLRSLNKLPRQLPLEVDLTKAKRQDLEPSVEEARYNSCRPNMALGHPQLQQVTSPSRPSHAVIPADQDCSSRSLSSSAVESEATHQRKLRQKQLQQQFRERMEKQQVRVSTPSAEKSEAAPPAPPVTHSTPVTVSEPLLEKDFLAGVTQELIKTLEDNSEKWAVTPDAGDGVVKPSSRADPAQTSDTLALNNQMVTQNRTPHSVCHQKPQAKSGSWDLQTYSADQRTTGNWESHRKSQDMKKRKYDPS
Assay: inhibition of RAD52-mediated strand annealing – biochemical, FRET, single point, primary screen (AID 651660);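 note: 0% = median of neutral control wells and 100% = median of positive control wells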
Conditions: Recombinant RAD52 ssDNA annealing, FRET fluorescence, 30 min; at 18.7 µM; stronger effect = higher value
Screen size: about 1,900 compounds; about 15 (0.8%) were called active. The list comes from a sample in which actives are over-represented; it also holds close analogues and randomly drawn compounds.
quantity.kind: inhibition (%)
Answers are plain numbers, in %.

compound	quantity.kind	observed.value
CC[C@H](CO)NCCN[C@H](CC)CO	inhibition	-5.2
OC12CCCCC1C(c1ccc3c(c1)OCO3)N(Cc1cccc(F)c1)CC2 (configuration not stated)	inhibition	-0.832
O=c1oc2c(CN3CCN(CCO)CC3)c(O)ccc2cc1-c1ccccn1	inhibition	-38.1
CCC1CCc2c(sc(NC(=O)c3cccnc3)c2C(N)=O)C1 (configuration not stated)	inhibition	-5.46
COC(=O)c1ccc(OCCCCN2CC(C)OC(C)C2)cc1 (configuration not stated)	inhibition	-1.97
Cc1c(NC(=O)c2cccs2)cccc1[N+](=O)[O-]	inhibition	0.122
C1CCC(C(CC2CCCCN2)C2CCCCC2)CC1 (configuration not stated)	inhibition	62.5
O=C(O)c1ccc(-c2ccc(O)c(F)c2)cc1	inhibition	-3.36
O=C(O)CCCNc1ccc(S(=O)(=O)Nc2ccccc2C(=O)O)cc1C(=O)O	inhibition	-12.9
COc1ccc(C(=O)C2CCCCC2=O)cc1 (configuration not stated)	inhibition	-11.5

// for each compound in input: emit inhibition
1. COc1ccc2[nH]c(=O)c3c(c2c1)OC(C)(C)C=C3
2. CC(NC(=O)OCc1ccccc1)C(=O)N1CC(O)CC1C(=O)O (configuration not stated)

-5.72
-5.77

// data source = PubChem BioAssay AID651660
